Give EC50 for every item shown.
# TARGET_ENTITY: CFTR (F508del/MF-HBE cells) (Homo sapiens, UniProt P13569, DEL508-508)
# Construct: human bronchial epithelial (HBE) cells derived from CF subjects heterozygous for F508del and a minimal function CFTR mutation; endogenous in cells
# Sequence (P13569 with tags, fused parts or gaps DEL508-508): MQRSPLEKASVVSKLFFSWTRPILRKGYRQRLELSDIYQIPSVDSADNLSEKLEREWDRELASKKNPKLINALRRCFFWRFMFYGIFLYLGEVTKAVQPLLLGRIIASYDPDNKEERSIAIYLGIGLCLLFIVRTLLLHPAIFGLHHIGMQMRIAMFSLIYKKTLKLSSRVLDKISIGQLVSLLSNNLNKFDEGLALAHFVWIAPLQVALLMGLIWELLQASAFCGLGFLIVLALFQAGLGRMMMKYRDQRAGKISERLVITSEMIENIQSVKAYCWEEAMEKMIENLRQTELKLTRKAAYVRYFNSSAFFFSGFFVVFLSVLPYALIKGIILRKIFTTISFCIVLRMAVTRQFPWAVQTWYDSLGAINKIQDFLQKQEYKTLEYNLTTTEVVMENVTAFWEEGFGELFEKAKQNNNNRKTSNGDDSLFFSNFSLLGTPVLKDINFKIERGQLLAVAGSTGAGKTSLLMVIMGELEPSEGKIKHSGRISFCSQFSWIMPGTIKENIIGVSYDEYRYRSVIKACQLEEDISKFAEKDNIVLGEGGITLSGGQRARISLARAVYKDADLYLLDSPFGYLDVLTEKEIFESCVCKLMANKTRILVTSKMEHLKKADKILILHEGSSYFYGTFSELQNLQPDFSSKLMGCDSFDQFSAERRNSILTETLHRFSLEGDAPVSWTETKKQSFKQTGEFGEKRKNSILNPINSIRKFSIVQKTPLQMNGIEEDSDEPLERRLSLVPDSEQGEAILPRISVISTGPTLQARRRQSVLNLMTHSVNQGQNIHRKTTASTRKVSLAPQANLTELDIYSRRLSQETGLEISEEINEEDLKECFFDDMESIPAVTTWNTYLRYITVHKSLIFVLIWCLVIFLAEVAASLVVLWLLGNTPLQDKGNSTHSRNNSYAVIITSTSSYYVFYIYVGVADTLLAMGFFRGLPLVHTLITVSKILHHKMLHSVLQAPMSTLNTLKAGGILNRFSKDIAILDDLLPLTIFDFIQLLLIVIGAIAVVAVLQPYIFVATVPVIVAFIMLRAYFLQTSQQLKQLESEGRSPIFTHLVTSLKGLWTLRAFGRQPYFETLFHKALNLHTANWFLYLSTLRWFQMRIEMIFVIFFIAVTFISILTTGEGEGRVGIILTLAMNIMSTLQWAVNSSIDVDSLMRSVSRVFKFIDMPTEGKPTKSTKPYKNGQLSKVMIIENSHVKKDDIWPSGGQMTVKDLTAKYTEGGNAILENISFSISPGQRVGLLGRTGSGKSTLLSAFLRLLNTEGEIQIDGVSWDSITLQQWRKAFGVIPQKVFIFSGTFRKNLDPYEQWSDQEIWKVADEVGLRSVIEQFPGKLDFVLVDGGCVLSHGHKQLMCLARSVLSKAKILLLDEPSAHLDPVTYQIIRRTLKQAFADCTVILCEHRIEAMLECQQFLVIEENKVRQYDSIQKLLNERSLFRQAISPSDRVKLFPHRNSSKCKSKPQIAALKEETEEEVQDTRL
# ASSAY_TEXT: Ussing chamber assay of CFTR-mediated short-circuit currents (identification of potentiator compounds)
# CONDITION_SET: CFTR-mediated ISC in F508del/MF-HBE cells; incubated 18-24 hours at 37° C. with 10 μM (14S)-8-[3-(2-{dispiro[2.0.2.1]heptan-7-yl}ethoxy)-1H-pyrazol-1-yl]-...-2,2,4-trione, 20% human serum

Exam item: Please tell me the measured EC50 for Nc1cc(C(F)(F)F)c2nc1-c1nnc(o1)-c1c(O)cccc1CCCC[C@@H]1CCCN21 ; system: CFTR (F508del/MF-HBE cells) (Homo sapiens, UniProt P13569, DEL508-508).
Marked response: > 1000 nM

Exam item: Please tell me the measured EC50 for Nc1cc(C(F)(F)F)c2nc1-c1nnc(o1)[C@@](O)(C(F)(F)F)CCCCC[C@H]1CCCN21 (single isomer, unassigned) ; system: CFTR (F508del/MF-HBE cells) (Homo sapiens, UniProt P13569, DEL508-508).
Marked response: < 500 nM

Exam item: Please tell me the measured EC50 for Nc1cc(S(=O)(=O)c2ccccc2)c2nc1-c1nnc(o1)C(O)(C(F)(F)F)CCCCC[C@@H]1CCCN21 (single isomer, unassigned) [Compound 141] ; system: CFTR (F508del/MF-HBE cells) (Homo sapiens, UniProt P13569, DEL508-508).
Marked response: < 500 nM

----------
# TARGET_ENTITY: CFTR (F508del/MF-HBE cells) (Homo sapiens, UniProt P13569, DEL508-508)
# Construct: human bronchial epithelial (HBE) cells derived from CF subjects heterozygous for F508del and a minimal function CFTR mutation; endogenous in cells
# ASSAY_TEXT: Ussing chamber assay of CFTR-mediated short-circuit currents (identification of potentiator compounds)
# CONDITION_SET: CFTR-mediated ISC in F508del/MF-HBE cells; incubated 18-24 hours at 37° C. with 10 μM (14S)-8-[3-(2-{dispiro[2.0.2.1]heptan-7-yl}ethoxy)-1H-pyrazol-1-yl]-...-2,2,4-trione, 20% human serum
MEASURE: EC50

Exam item: // fetch EC50 given entry Nc1cc(S(=O)(=O)c2ccc(OC(F)(F)F)cc2)c2nc1-c1nnc(o1)C(O)(C(F)(F)F)CCCCC[C@@H]1CCCN21 (single isomer, unassigned) [Compound 152]
Marked response: < 500 nM

Exam item: // fetch EC50 given entry COc1ccc2cc1C(O)(C(F)(F)F)C1=NN=C(O1)c1nc(c(C(F)(F)F)cc1N)N1CCC[C@H]1CCC2 (single isomer, unassigned) [Compound 92]
Marked response: > 1000 nM

Exam item: // fetch EC50 given entry CN1CCCCCCC(C)(O)C2=NN=C(O2)c2nc1c(C(F)(F)F)cc2N (single isomer, unassigned) [Compound 61]
Marked response: < 500 nM

Exam item: // fetch EC50 given entry CN1CCCCCCC(=O)C2=NN=C(O2)c2nc1c(C(F)(F)F)cc2N
Marked response: < 500 nM

Exam item: // fetch EC50 given entry Nc1cc(C(F)(F)F)c2nc1-c1nnc(o1)C(O)(C(F)(F)F)CCCC(=O)N1CCN2CC1 (single isomer, unassigned) [Compound 37]
Marked response: < 500 nM

Exam item: // fetch EC50 given entry Nc1cc(C(F)(F)F)c2nc1-c1nnc(o1)[C@@](O)(C(F)(F)F)CCCCCC(Cc1ccccc1)N2 (single isomer, unassigned)
Marked response: < 500 nM

Exam item: // fetch EC50 given entry Nc1cc(C(F)(F)F)c2nc1-c1nnc(o1)C(O)(C(F)(F)F)CCCCCC1CCS(=O)(=O)N21 (single isomer, unassigned) [Compound 112]
Marked response: 500 to 1000 nM

Exam item: // fetch EC50 given entry Nc1cc(C(F)(F)F)c2nc1-c1nnc(o1)C(O)(C(F)(F)F)c1ccc(F)c(c1)CCC[C@@H]1CCCN21 (single isomer, unassigned) [Compound 131]
Marked response: < 500 nM

Exam item: // fetch EC50 given entry CN(C)C(=O)C1CCCCCC(O)(C(F)(F)F)C2=NN=C(O2)c2nc(c(C(F)(F)F)cc2N)N1 (single isomer, unassigned) [Compound 149]
Marked response: > 1000 nM

Exam item: // fetch EC50 given entry CC1(C)CC2CCCc3ccc(F)c(c3)C(O)(C(F)(F)F)C3=NN=C(O3)c3nc(c(C(F)(F)F)cc3N)N2C1 (stereo not drawn) [Compound 136]
Marked response: < 500 nM

Exam item: // fetch EC50 given entry CN(C)C(=O)C1CCCCCC(O)(C(F)(F)F)C2=NN=C(O2)c2nc(c(C(F)(F)F)cc2N)N1 (single isomer, unassigned) [Compound 151]
Marked response: > 1000 nM

Exam item: // fetch EC50 given entry Nc1cc(C(F)(F)F)c2nc1-c1nnc(o1)C(O)(C(F)(F)F)CCCCCC1CCS(=O)(=O)N21 (single isomer, unassigned) [Compound 111]
Marked response: > 1000 nM

# credit: patent US12324802B2
